# credit: patent US8748417B2

TARGET OR TEST SYSTEM: purified mutant MGL (mut-MGLL 11-313 L179S L186S) (Homo sapiens, UniProt Q99685, L169S/L176S)
Construct: purified mutant MGL (mut-MGLL 11-313 L179S L186S)
Sequence (Q99685 whole entry L169S/L176S): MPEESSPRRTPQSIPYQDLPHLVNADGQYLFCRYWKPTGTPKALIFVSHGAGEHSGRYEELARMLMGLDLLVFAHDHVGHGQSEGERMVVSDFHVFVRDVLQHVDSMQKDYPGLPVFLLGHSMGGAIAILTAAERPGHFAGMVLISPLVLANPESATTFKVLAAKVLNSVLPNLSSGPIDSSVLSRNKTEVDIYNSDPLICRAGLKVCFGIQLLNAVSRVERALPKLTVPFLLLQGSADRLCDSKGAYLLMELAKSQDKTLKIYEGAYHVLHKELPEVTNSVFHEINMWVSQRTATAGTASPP
METHOD NOTES: MGL enzyme activity assay (4MU-B cleavage), mutant MGL
MEASUREMENT CONDITIONS: mutant MGL 5 nM, 4MU-B 10 μM, 37° C.; read-out: MGL mutant inh IC50
QUANTITY NAME: IC50 (µM)

Examples with their reported IC50 follow.
[[record]]
substance_smiles = "O=C(c1ccccc1)N1CC[C@H](NC2CN(C(=O)c3sc4cc(-c5ccccc5)ccc4c3Cl)C2)C1"
quantity_name = "IC50"
observed_result = 0.005

[[record]]
substance_smiles = "O=C(c1ccccc1)N1CC[C@H](NC2CN(C(=O)c3cc4ccc(Br)cc4s3)C2)C1"
quantity_name = "IC50"
observed_result = 0.301

[[record]]
substance_smiles = "O=C(c1ccc2c(-c3cccc(C(F)(F)F)c3)cccc2c1)N1CC(N[C@H]2CCN(C(=O)c3ccccc3)C2)C1"
quantity_name = "IC50"
observed_result = 0.007

[[record]]
substance_smiles = "O=C(c1ccc(-c2ccccc2)cc1)N1CC(N[C@H]2CCN(C(=O)c3ccc(F)cc3)C2)C1"
quantity_name = "IC50"
observed_result = 1.63

[[record]]
substance_smiles = "O=C(c1ccc2c(-c3ccccc3)cccc2c1)N1CC(N[C@H]2CCN(C(=O)c3ccccc3)C2)C1"
quantity_name = "IC50"
observed_result = 0.0149

[[record]]
substance_smiles = "CN(C1CN(C(=O)c2ccc(-c3cccc(C(F)(F)F)c3)cc2)C1)[C@H]1CCN(C(=O)c2ccccc2)C1"
quantity_name = "IC50"
observed_result = 0.0117

[[record]]
substance_smiles = "Cc1c(C(=O)N2CC(N[C@H]3CCN(C(=O)c4ccccc4)C3)C2)sc2ccc(-c3cccc(C(F)(F)F)c3)cc12"
quantity_name = "IC50"
observed_result = 0.0063

[[record]]
substance_smiles = "Cc1c(C(=O)N2CC(N[C@H]3CCN(C(=O)c4ccccc4)C3)C2)sc2ccc(-c3ccc(C(F)(F)F)cc3)cc12"
quantity_name = "IC50"
observed_result = 0.0189

[[record]]
substance_smiles = "O=C(c1ccccc1)N1CC[C@H](NC2CN(C(=O)c3cc4ccc(-c5cccc(C(F)(F)F)c5)cc4s3)C2)C1"
quantity_name = "IC50"
observed_result = 0.0317

[[record]]
substance_smiles = "Cc1c(C(=O)N2CC(N[C@H]3CCN(C(=O)c4ccccc4)C3)C2)sc2ccc(Cl)cc12"
quantity_name = "IC50"
observed_result = 0.0477


A = O=C(c1ccc(-c2ccccc2)cc1)N1CC(N[C@H]2CCN(C(=O)c3cccc(F)c3)C2)C1
B = O=C(c1ccc(-c2ccccc2)cc1)N1CC(N[C@H]2CCN(C(=O)c3ccccc3)C2)C1
C = O=C(c1ccc(-c2ccc(OC(F)(F)F)cc2)cc1)N1CC(N[C@H]2CCN(C(=O)c3ccccc3)C2)C1
Problem: Rank by IC50 (largest to smallest). Answer format: list of labels, ordered as asked.
Result: A, C, B
